This collection of values is drawn from patent US20230295310A1.

# target system: T1, human CD3e/g (human, UniProt P07766 23-126; P09693 23-116)
# T1 construct: Bought soluble protein; also called hCD3e/g; human CD3e/g (Acro CDD-C52W4)
# T1 sequence (P07766 23-126, chain 1 of 2): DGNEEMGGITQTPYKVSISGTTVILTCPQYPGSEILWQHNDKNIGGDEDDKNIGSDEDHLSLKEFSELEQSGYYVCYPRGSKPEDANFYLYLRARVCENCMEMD
# T1 sequence (P09693 23-116, chain 2 of 2): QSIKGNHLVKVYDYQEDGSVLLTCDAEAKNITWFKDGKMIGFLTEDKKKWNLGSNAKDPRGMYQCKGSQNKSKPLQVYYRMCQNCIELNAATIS
# assay notes: SPR (Carterra LSA), mAb on chip
readout kind: Kd (nM)
# number only, unit nM dropped from output

mAb 213 (antibody, V domains shown, VH and VL only) VH: QEQLVESGGGVVQPGGSLRLSCAASGFTFSGYGMHWVRQAPGKGLEWVAIIWYNGRKTYYAESVKGRFTISRDNSKNTLSLQMNSLRVEDTAVYYCTTGKGYNWFDPWGQGTLVTVSS VL: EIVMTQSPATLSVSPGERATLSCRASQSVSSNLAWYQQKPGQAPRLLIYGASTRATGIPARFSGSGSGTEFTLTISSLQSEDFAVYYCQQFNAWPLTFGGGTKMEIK: 8.6

query: What value of Kd has been recorded for this entry: mAb 131 (antibody, V domains shown, VH and VL only) VH: EVQLVESGGGLVKTGGSLRISCVASGFSFKKAWMNWVRQAPGKGLEWVGRIKRNTDGGTIDYAAPVKGRFSLSRDDSKNTLFLQMNSLKTEDTAVYFCTTLDSSSYYVGYYYMDVWGKGTTVTVSS VL: DIHMTQSPSSVSASVGDRVTITCRASQDINNWLAWYQQKPGKAPKLLIYTASSLQSGVPSRFSGSGSGTDFTLTISSLQPEDFATYFCQQAHSLPITFGQGTRLGIK
result: 7.45
